Source listed as patent US10479780B2.

Please go through the items and note down their IC50.
Biological target: human Yes1 enzyme (Homo sapiens)
Construct: made in house
Sequence (P07947 whole entry): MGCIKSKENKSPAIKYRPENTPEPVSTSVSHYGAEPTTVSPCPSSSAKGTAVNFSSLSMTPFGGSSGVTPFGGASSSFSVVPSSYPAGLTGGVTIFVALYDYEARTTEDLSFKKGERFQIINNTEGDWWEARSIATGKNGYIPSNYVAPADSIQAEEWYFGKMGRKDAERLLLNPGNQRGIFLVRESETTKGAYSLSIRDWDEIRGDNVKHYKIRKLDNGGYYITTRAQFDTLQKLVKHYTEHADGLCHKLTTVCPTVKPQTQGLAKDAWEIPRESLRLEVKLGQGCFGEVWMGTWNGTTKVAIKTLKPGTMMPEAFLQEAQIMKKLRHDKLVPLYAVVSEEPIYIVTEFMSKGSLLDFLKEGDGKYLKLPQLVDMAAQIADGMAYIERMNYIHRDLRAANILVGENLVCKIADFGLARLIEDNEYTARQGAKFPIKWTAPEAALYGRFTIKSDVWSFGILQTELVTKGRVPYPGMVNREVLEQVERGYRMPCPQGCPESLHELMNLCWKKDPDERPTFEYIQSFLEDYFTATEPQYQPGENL
Test: Yes1 enzyme inhibitory activity (time-resolved fluorometry, biotinylated peptide phosphorylation)
Assay type: biochemical
Conditions: read-out: YES_IC50
Description: 1. Yes1 Enzyme Inhibitory Activity Yes1 inhibitory activity was determined based on activity of inhibiting phosphorylation reaction of a biotinylated peptide (EGPWLEEEEEAYGWMDF) using a human Yes1 enzyme prepared using a baculovirus expression system. The phosphorylated biotinylated peptide was detected by time-resolved fluorometry using an anti-phosphorylated tyrosine antibody conjugated to europium cryptate, and streptavidin conjugated to XL665, an allophycocyanin derivative. […]

Example cases with answers are listed next.
{"Structure smiles string": "Cc1cc(-n2ncc(C(=O)c3cc4cc(OCC(F)F)c(N5CCOC5=O)cc4[nH]3)c2N)ccc1Oc1ccccc1F", "IC50": "1.1 nM"}
{"Structure smiles string": "Cc1cc(-n2ncc(C(=O)c3cc4cc(OC5CCN(C(C)C)CC5)c(Cl)cc4[nH]3)c2N)ccc1Oc1cccc(F)c1", "IC50": "4.4 nM"}
{"Structure smiles string": "Cc1cc(-n2ncc(C(=O)c3cc4cc(OC5CCN(C6CCC6)CC5)c(N5C(=O)NC(C)(C)C5=O)cc4[nH]3)c2N)ccc1Oc1ccccc1F", "IC50": "0.92 nM"}
{"Structure smiles string": "CC(=O)N1CCC(c2cc3[nH]c(C(=O)c4cnn(-c5ccc(Oc6ccccc6F)cc5C)c4N)cc3cc2C)CC1", "IC50": "0.71 nM"}
{"Structure smiles string": "CS(=O)(=O)Nc1cc2[nH]c(C(=O)c3cnn(-c4c(Cl)cc(Oc5cccc(F)c5F)cc4Cl)c3N)cc2cc1F", "IC50": "26 nM"}
{"Structure smiles string": "Cc1cc(-n2ncc(C(=O)c3cc4cc(F)c(NS(C)(=O)=O)cc4[nH]3)c2N)cnc1Oc1cccc(F)c1F", "IC50": "52 nM"}

Lab note: each compound below needs its IC50 filled in.
1. Cc1cc2cc(C(=O)c3cnn(-c4cnc(Oc5c(F)cccc5F)cc4C)c3N)[nH]c2cc1NS(=O)(=O)C1CCCCC1
2. Cc1cc(Oc2c(F)cccc2F)ncc1-n1ncc(C(=O)c2cc3cc(OCC(F)F)c(Br)cc3[nH]2)c1N
3. COc1cc2cc(C(=O)c3cnn(-c4cnc(Oc5c(F)cccc5F)cc4C)c3N)[nH]c2cc1NS(=O)(=O)CC(=O)N1CCOCC1
4. Cc1cc(-n2ncc(C(=O)c3cc4cc(N5CCOCC5)c(NS(C)(=O)=O)cc4[nH]3)c2N)ccc1Oc1ccccc1F
5. Cc1cc(Oc2ccccc2F)ccc1-n1ncc(C(=O)c2cc3cc(C(C)C)c(NS(C)(=O)=O)cc3[nH]2)c1N
6. Cc1cc(-n2ncc(C(=O)c3cc4cc(OC5CCN(C(C)C)CC5)c(-c5cncnc5)cc4[nH]3)c2N)ccc1Oc1ccccc1F

Reply:
1: 9.6 nM; 2: 3.3 nM; 3: 0.59 nM; 4: 1.9 nM; 5: 2 nM; 6: 2 nM

Give me IC50 for each of these compounds, listed below.
1. Cc1cc(Oc2ccccc2F)ccc1-n1ncc(C(=O)c2cc3cc(F)c(N4C(=O)C(C)(C)NC4=S)cc3[nH]2)c1N
2. Cc1cc(Oc2c(F)cccc2F)ncc1-n1ncc(C(=O)c2cc3cc(OC4CCN(C(C)C)CC4)c(-c4cncnc4)cc3[nH]2)c1N
3. Cc1cc2cc(C(=O)c3cnn(-c4ccc(Oc5ccccc5F)cc4C)c3N)[nH]c2cc1N1C(=O)NC2(CCC2)C1=O
4. Cc1cc(-n2ncc(C(=O)c3cc4cc(F)c(NS(C)(=O)=O)cc4[nH]3)c2N)cnc1Oc1c(F)cccc1Cl
5. Cc1cc(Oc2ccccc2F)ccc1-n1ncc(C(=O)c2cc3cc(N4CCOCC4)c(Br)cc3[nH]2)c1N
6. Cc1cc2cc(C(=O)c3cnn(-c4c(C)cc(Oc5ccccc5F)cc4F)c3N)[nH]c2cc1NS(=O)(=O)CC(=O)NC(C)C
7. Cc1cc2cc(C(=O)c3cnn(-c4cnc(Oc5c(F)cccc5F)cc4C)c3N)[nH]c2cc1N1C(=O)NC2(CC2)C1=O

Reply:
["0.87 nM", "1.8 nM", "2 nM", "38 nM", "0.57 nM", "6.2 nM", "3.7 nM"]

* * *

Target: human Yes1 enzyme (Homo sapiens)
Construct: made in house
Assay: Yes1 enzyme inhibitory activity (time-resolved fluorometry, biotinylated peptide phosphorylation)
Type: biochemical
Details: biotinylated peptide phosphorylation, read-out: YES_IC50
Procedure: 1. Yes1 Enzyme Inhibitory Activity Yes1 inhibitory activity was determined based on activity of inhibiting phosphorylation reaction of a biotinylated peptide (EGPWLEEEEEAYGWMDF) using a human Yes1 enzyme prepared using a baculovirus expression system. The phosphorylated biotinylated peptide was detected by time-resolved fluorometry using an anti-phosphorylated tyrosine antibody conjugated to europium cryptate, and streptavidin conjugated to XL665, an allophycocyanin derivative. […]
Measurement type: IC50 (nM)
Numbers only, in nM.

Lab note: each compound below needs its IC50 filled in.
1. Cc1cc(Oc2ccccc2F)cc(F)c1-n1ncc(C(=O)c2cc3cc(OCC(F)F)c(N4CCCS4(=O)=O)cc3[nH]2)c1N [Example 4-25-010]
2. CC(=O)N1CCC(c2cc3[nH]c(C(=O)c4cnn(-c5cnc(Oc6ccccc6F)cc5C)c4N)cc3cc2OCC(F)F)CC1 [Example 4-17-020]
3. Cc1cc(Oc2ccccc2F)ccc1-n1ncc(C(=O)c2cc3cc(OC(F)F)c(N4C(=O)C(C)(C)NC4=S)cc3[nH]2)c1N [Example 4-23-039]
4. Cc1cc2cc(C(=O)c3cnn(-c4cnc(Oc5c(F)cccc5F)cc4C)c3N)[nH]c2cc1NS(=O)(=O)c1cccc(F)c1 [Example 5-1-551]
5. Cc1cc2cc(C(=O)c3cnn(-c4ccc(Oc5ccccc5F)cc4C)c3N)[nH]c2cc1N1C(=O)N[C@@H](CO)C1=O [Example 5-1-456]
6. Cc1cc(Oc2ccccc2F)ccc1-n1ncc(C(=O)c2cc3cc(F)c(NS(=O)(=O)NCC(C)(C)O)cc3[nH]2)c1N [Example 4-6-004]
7. COc1cc2cc(C(=O)c3cnn(-c4cnc(Oc5cccc(Cl)c5)cc4C)c3N)[nH]c2cc1NS(C)(=O)=O [Example 4-1-011]

Reply:
1.7
0.81
0.81
19
0.4
1.1
5.5

Batch request: IC50 per item, same order as input.
1. Cc1cc(Oc2c(F)cccc2Cl)ncc1-n1ncc(C(=O)c2cc3cc(Cl)c(NS(C)(=O)=O)cc3[nH]2)c1N [Example 4-2-089]
2. Cc1cc(Oc2c(F)cccc2F)ncc1-n1ncc(C(=O)c2cc3cc(N4CCOCC4)c(NS(=O)(=O)C4CC4)cc3[nH]2)c1N [Example 4-24-017]
3. Cc1cc2cc(C(=O)c3cnn(-c4cnc(Oc5ccccc5Cl)cc4C)c3N)[nH]c2cc1NS(=O)(=O)CCCF [Example 4-2-074]
4. Cc1cc(Oc2ccccc2F)ncc1-n1ncc(C(=O)c2cc3cc(OCC(F)F)c(N4CCOC4=O)cc3[nH]2)c1N [Example 4-25-016]
5. Cc1cc(Oc2cccc(F)c2F)cc(F)c1-n1ncc(C(=O)c2cc3cc(F)c(NS(C)(=O)=O)cc3[nH]2)c1N [Example 4-7-005]
6. Cc1cc(Oc2cccc(F)c2F)ncc1-n1ncc(C(=O)c2cc3cc(F)c(NS(=O)(=O)C4CC4)cc3[nH]2)c1N [Example 4-2-045]
7. Cc1cc(Oc2ccccc2F)ccc1-n1ncc(C(=O)c2cc3cc(F)c(NS(=O)(=O)c4cccnc4)cc3[nH]2)c1N [Example 5-1-489]

Reply:
1: 2.7; 2: 4.1; 3: 2.7; 4: 0.48; 5: 2.8; 6: 4.9; 7: 1.9

* * *

Molecular target: human Src enzyme (Homo sapiens)
Construct: purchased Carna Biosciences, Inc. 08-173
Sequence (P12931 whole entry): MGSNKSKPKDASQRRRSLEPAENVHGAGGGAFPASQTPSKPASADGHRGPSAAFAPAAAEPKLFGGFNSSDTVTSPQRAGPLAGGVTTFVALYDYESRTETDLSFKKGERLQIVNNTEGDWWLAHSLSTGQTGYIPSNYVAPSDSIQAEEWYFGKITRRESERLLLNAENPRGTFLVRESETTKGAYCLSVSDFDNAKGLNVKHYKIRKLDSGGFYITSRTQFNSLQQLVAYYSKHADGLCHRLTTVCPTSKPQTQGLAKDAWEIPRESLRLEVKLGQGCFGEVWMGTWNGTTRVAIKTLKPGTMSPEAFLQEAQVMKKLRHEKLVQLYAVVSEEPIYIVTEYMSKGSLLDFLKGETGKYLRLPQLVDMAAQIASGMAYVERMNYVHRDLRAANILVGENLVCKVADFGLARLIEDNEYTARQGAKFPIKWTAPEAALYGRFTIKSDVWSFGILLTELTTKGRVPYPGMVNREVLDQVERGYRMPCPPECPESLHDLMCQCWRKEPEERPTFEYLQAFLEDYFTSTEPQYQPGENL
Assay: Src enzyme inhibitory activity (time-resolved fluorometry, biotinylated peptide phosphorylation)
Format: biochemical
Details: biotinylated peptide phosphorylation, read-out: SRC_IC50
Experimental: 2. Src Enzyme Inhibitory Activity Src inhibitory activity was determined based on activity of inhibiting phosphorylation reaction of a biotinylated peptide (EGPWLEEEEEAYGWMDF) using a human Src enzyme (manufactured by Carna Biosciences, Inc., cat 08-173). The phosphorylated biotinylated peptide was detected by time-resolved fluorometry using an anti-phosphorylated tyrosine antibody conjugated to europium cryptate, and streptavidin conjugated to XL665, an allophycocyanin derivative. […]
pIC50: −log10 of the molar value.
Rule: condition met for pIC50 not less than 7, condition not met for anything less.

Solved entries:
{"Compound": "Cc1cc(Oc2ccccc2F)ccc1-n1ncc(C(=O)c2cc3cc(N4CCOCC4)c(NS(C)(=O)=O)cc3[nH]2)c1N [Example 4-24-013]", "Assigned category": "condition met"}
{"Compound": "Cc1cc2cc(C(=O)c3cnn(-c4cnc(Oc5c(F)cccc5F)cc4C)c3N)[nH]c2cc1NS(=O)(=O)c1cccc(F)n1 [Example 5-1-516]", "Assigned category": "condition not met"}

Task item: Kindly determine if pIC50 recorded for Cc1cc(Oc2cccc(Cl)c2)ccc1-n1ncc(C(=O)c2cc3cc(C4CCN(C(C)C)CC4)c(F)cc3[nH]2)c1N [Example 4-2-003] is above or exactly 7.
Reply: condition met

Task item: Could you tell me if the measured pIC50 of Cc1cc2cc(C(=O)c3cnn(-c4cnc(Oc5ccccc5F)cc4C)c3N)[nH]c2cc1NS(=O)(=O)CC(=O)N1CCOCC1 [Example 4-15-001] reaches 7 or more?
Reply: condition met

Task item: Item Cc1cc(Oc2c(F)cccc2F)ncc1-n1ncc(C(=O)c2cc3cc(OCC(F)F)c(N4C(=O)NC(C)(C)C4=O)cc3[nH]2)c1N [Example 4-23-032] with pIC50 of 7 or above?
Reply: condition met

Task item: Exam item: decide whether the reported pIC50 for Cc1cc(Oc2ccccc2F)ncc1-n1ncc(C(=O)c2cc3cc(F)c(NS(=O)(=O)c4cccc(F)c4)cc3[nH]2)c1N [Example 5-1-554] is at least 7.
Reply: condition not met

Task item: Confirm if pIC50 reported for the compound Cc1cc(Oc2ccccc2F)ncc1-n1ncc(C(=O)c2cc3cc(OCC(F)F)c(C4CCN(S(C)(=O)=O)CC4)cc3[nH]2)c1N [Example 4-17-021] is 7 or above.
Reply: condition met

Task item: Does the reported pIC50 for Cc1cc(Oc2ccccc2F)ccc1-n1ncc(C(=O)c2cc3cc(OCC(F)F)c(N4CCC(N5CCOCC5)CC4)cc3[nH]2)c1N [Example 4-25-028] fall at or above the 7 mark?
Reply: condition met

Task item: Is pIC50 at least 7? Consider Cc1cc(Oc2c(F)cccc2F)ncc1-n1ncc(C(=O)c2cc3cc(F)c(NS(=O)(=O)c4cccc(Cl)c4)cc3[nH]2)c1N [Example 5-1-559]
Reply: condition not met

Task item: Textbook exercise: given the entry Cc1cc(Oc2c(F)cccc2F)ncc1-n1ncc(C(=O)c2cc3cc(F)c(N4C(=O)[C@@H]5C[C@@H](O)CN5C4=O)cc3[nH]2)c1N [Example 5-1-433] , state whether its pIC50 is greater than or equal to 7.
Reply: condition met

Task item: # check: pIC50 of Cc1cc(Oc2ccccc2F)ccc1-n1ncc(C(=O)c2cc3cc(C4CCN(C(C)C)CC4)c(F)cc3[nH]2)c1N [Example 4-2-001] is greater than or equal to 7
Reply: condition met

Task item: Evaluate Cc1cc(Oc2ccccc2F)ccc1-n1ncc(C(=O)c2cc3cc(F)c(NS(=O)(=O)c4cccc(Cl)c4)cc3[nH]2)c1N [Example 5-1-558] : pIC50 at minimum 7?
Reply: condition not met

Task item: For this compound, is measured pIC50 7 or higher? Cc1cc(Oc2ccccc2F)cc(F)c1-n1ncc(C(=O)c2cc3cc(F)c(NS(C)(=O)=O)cc3[nH]2)c1N [Example 4-7-003]
Reply: condition met

Task item: Does the reported pIC50 for Cc1cc(Oc2cccc(Cl)c2)cc(F)c1-n1ncc(C(=O)c2cc3cc(F)c(NS(C)(=O)=O)cc3[nH]2)c1N [Example 4-7-011] fall at or above the 7 mark?
Reply: condition not met

Task item: Could you tell me if the measured pIC50 of Cc1cc2cc(C(=O)c3cnn(-c4ccc(Oc5ccccc5F)cc4C)c3N)[nH]c2cc1NS(=O)(=O)c1cncc(Cl)c1 [Example 5-1-540] reaches 7 or more?
Reply: condition not met

Task item: Reported pIC50 at or above 7? COc1cc2cc(C(=O)c3cnn(-c4cnc(Oc5c(F)cccc5F)cc4C)c3N)[nH]c2cc1NS(=O)(=O)CCCF [Example 4-19-001]
Reply: condition met

Task item: Could you tell me if the measured pIC50 of CC(=O)N1CCC(c2cc3[nH]c(C(=O)c4cnn(-c5cnc(Oc6ccccc6F)cc5C)c4N)cc3cc2OCC(F)F)CC1 [Example 4-17-020] reaches 7 or more?
Reply: condition met

Task item: Check if pIC50 >= 7 (inclusive). Item: Cc1cc(Oc2ccccc2F)ncc1-n1ncc(C(=O)c2cc3cc(OC(F)F)c(N4CCOC4=O)cc3[nH]2)c1N [Example 4-25-018]
Reply: condition met

Task item: Can Cc1cc(Oc2ccccc2F)ccc1-n1ncc(C(=O)c2cc3cc(F)c(NS(=O)(=O)NC4CC4)cc3[nH]2)c1N [Example 4-5-010] be said to have pIC50 at or above 7?
Reply: condition met

Task item: Has Cc1cc(Oc2ccccc2F)ccc1-n1ncc(C(=O)c2cc3cc(F)c(NS(=O)(=O)c4cccc(Cl)n4)cc3[nH]2)c1N [Example 5-1-527] a recorded pIC50 greater than or equal to 7?
Reply: condition not met
